Test system: MS2 coat protein
procedure_details: apparent KD of MS2 coat protein; designed switch direction (-1 OFF switch, 1 ON switch): -1; higher = weaker reporter binding
condition_details: input ligand: microRNA oligo, concentration not stated
measured_attribute: apparent KD of MS2 coat protein (nM)
Provide only the numeric value, understood in nM.

AUGCCGAGUGUAGGAUAUGGCCCGGAACCACGGCCAGAAGGACAUGAGGAUCACCCAUGUGGCCCGAUAUACACGGUAUCAGAC [Eternabot solution 1] (Eterna round: R96, puzzle: Exclusion NG 1)	17.7
GCAGCUUAGUUAACAGACUGUUACAUGAGGAUCACCCAUGUACAGGAUAUGGUCUGGAUUACAGGCCAGAAGGGUACAAGCUGC [Eli exng3 - 018] (Eterna round: R96, puzzle: Exclusion NG 3)	9.01

Now let's try a different one.
What the record says about UUUUGAAAGUGAGGAUAUGACAUGAGGAUCACCCAUGUAAAGGGAGUUGACUAUAUAGCAAGAUAUCAGAAGGCACAAAUGUUU [JR_ExcNG2_Sub003] (Eterna round: R96, puzzle: Exclusion NG 2) : apparent KD of MS2 coat protein is 341

----------
Documented apparent KD of MS2 coat protein across a set of sequences
System: MS2 coat protein
procedure_details: apparent KD of MS2 coat protein; higher = weaker reporter binding
condition_details: Eterna round: R101; input ligand: FMN 200 uM
Provide only the numeric value, understood in nM.

Examples with their reported apparent KD of MS2 coat protein follow.
CGAAGUCCGUAGAAGGGUGACAUGAGGAUCACCCAUGUGCGAGCCGAUGGAGUCAGCGGCUCGCCACAGGAUAUACGGAGCACG [Isdiesrama] (puzzle (switch architecture): Inverted Same State NG 2)	22.3
UAUUAUAUAUAGAAGGACAUGAGGAUCACCCAUGUCGCCGGGCCCGGGAAACCGGGCCCGGCCAUGUAGGAUAUAUAUAUGGUA [#This is a good prank 8] (puzzle (switch architecture): Inverted Exclusion NG 2)	6.2
GCAGCUAAUGCAGGAUAUCAGCACGUGUAGUGCUGAGAAGGGCACAUGAGGAUCACCCAUGUGAUCAAUUAAUGUUAAUGCUGC [ExNG1 1 #C-Saturation] (puzzle (switch architecture): Exclusion NG 1)	15.2

What the record says about AUGGAUAUCACAGGAUAUGAUAUGGAUACCAUAUCAGAAGGGUGACCCAUCCUAUGUAAAUACAUGAGGAUCACCCAUGUGUCC [Sara'sguidence+#HughScoreProbStacks#11] (puzzle (switch architecture): Same State NG 1) : apparent KD of MS2 coat protein is 340

----------
Tested on: K4 kissing-loop RNA reporter
procedure_details: apparent KD of K4 kissing-loop reporter; higher = weaker reporter binding
condition_details: Eterna round: R107; input ligand: tryptophan 2.4 mM
measured_attribute: apparent KD of K4 kissing-loop reporter (nM)
Provide only the numeric value, understood in nM.

GGAUAGGACGGAGGAUAUGGUAGUGAUGUUACCAAACUGGUUAAACAUGUCAGAAAACUGGCAUGACCAGAAGGCCGUCCUAUCG [FmnBX 27 G10+C76]	67.4
AAGGUCACUGCUACAGUGAUGUUGUGGGAGCAGGAUAUGCAGAAAUGCAGAAGGGCUCGCUCCAGGUGACCGAAUGAAACAUUCA [whbob_SS_FMNA__2th175]	1000

Short answer on K4 kissing-loop RNA reporter for UGUCAUGGAAACAUGAACGUUGAAAUAUGACGAGGACCGGUACGGCCGCCACUCGAGUAAUGGUCAGUGAUGUUGACUGGAUUAA [KL-SSTryp-A form1 sub5 #split stat1] , apparent KD of K4 kissing-loop reporter: 51.9

----------
Test system: MS2 coat protein
procedure_details: apparent KD of MS2 coat protein; designed switch direction (-1 OFF switch, 1 ON switch): 1; higher = weaker reporter binding
condition_details: input ligand: none
Documented apparent KD of MS2 coat protein across a set of sequences
Provide only the numeric value, understood in nM.

Examples with their reported apparent KD of MS2 coat protein follow.
GGUAGGUUACUACCAAACAUGAGGAUCACCCAUGUAAGUGGGAAGGAUAUGGUACCUUUUAGGUACCAGAAGGUCCAUAUAAUU [JL Fiskers NG3ss - 2 mod 6] (Eterna round: R96, puzzle: Same State NG 3)	3220
GGAGCCGGCCUAGGAUAUUUCAUGAAAAAACAUGAGGAUCACCCAUGUAGGCCAGAAGGCCUUGGGAAGAAGGAGGUCGGCUCC [Loop Effect - G24] (Eterna round: R96, puzzle: Same State NG 2)	472
GGAGCCGGCCUAGGAUAUUUCAUAAAAACACAUGAGGAUCACCCAUGUAGGCCAGAAGGCCUUGGGAAGAAGGAGGUCGGCUCC [Loop Effect - C29] (Eterna round: R96, puzzle: Same State NG 2)	23.6

What the record says about GGUAGGUUACUACCAACACAUGAGGAUCACCCAUGUUUUGGGAAGGAUAUGGUACCUAUUUGGUACCAGAAGGUCCAGUUAAUU [Fiskers NG3ss - 17] (Eterna round: R96, puzzle: Same State NG 3) : apparent KD of MS2 coat protein is 69.5

What the record says about GUUACAUGAGGAUCACCCAUGUAUGUGUGGGAGUAAGUGUCUUAGGAUAUCUAUUGUUUAAAUUAAGAGAAGGAAGAUUGUUGU [JMF's solution 13] (Eterna round: R96, puzzle: Same State NG 3) : apparent KD of MS2 coat protein is 117

----------
Documented apparent KD of MS2 coat protein across a set of sequences
System: MS2 coat protein
procedure_details: apparent KD of MS2 coat protein; designed switch direction (-1 OFF switch, 1 ON switch): -1; higher = weaker reporter binding
condition_details: Eterna round: R95; input ligand: FMN 200 uM
Provide only the numeric value, understood in nM.

What the record says about UUUAAUUUUUUUUUUUUACAAGCUUUUUGCUCGUCUUAUACAUGAGGAUCACCCAUGUGGGUAGAAGAUAAAUUAUC [JMF 6] (puzzle: Sensor v3, turn-off variant 2) : apparent KD of MS2 coat protein is 46.4

----------
System: K4 kissing-loop RNA reporter
procedure_details: apparent KD of K4 kissing-loop reporter; higher = weaker reporter binding
condition_details: Eterna round: R107; input ligand: FMN 200 uM
Please note: 1 applies when apparent KD of K4 kissing-loop reporter is 100 nM or greater, and -1 applies otherwise.

UAGCAUUUGCUCGAGUGAUGUUCGAGCGAAGGAGCGCGAGAAAUCGCAGGUAGGUCGCGCUCGAACUAUGAGCGAUCAUUUAUUG [Arg A Ex t2d]	1

Exam item: # check: apparent KD of K4 kissing-loop reporter of AUCGUUGUCUGAGGAUAUCGGUUAUCUGUAGUGAUGUUACAGUAUAUUGAUAUUAAAGAUUCUAUUCGAGAAGGCAGACAACGUA [JR_Nu3_ExcFMNB_Sub023] is greater than or equal to 100 nM
Marked response: -1

Exam item: # check: apparent KD of K4 kissing-loop reporter of GGGAUGAUGUCGGCCGCCACUGACUGUGUCCAGUGAUGUUGGGAGUGUACGGAAGUUCCAUAUAUCAGGACCGGGACCUCGCUCC [theeternabot_sameState_KL_Trp_B_44] is greater than or equal to 100 nM
Marked response: 1

Exam item: # check: apparent KD of K4 kissing-loop reporter of UGUGGAGAAUAUGAUACCAGCAGAGAGAGAGAGGAAGUAUAGUGAUGUUAUAUGAGAGAAUGCCCUUGGCAGCAUAAGAAGAAGG [SSTheophylB.C] is greater than or equal to 100 nM
Marked response: 1

Exam item: # check: apparent KD of K4 kissing-loop reporter of GCGCGUCAUGUCAGCGGUGACUACGUCGAUACCAGCAGGGAAACCUGCCCUUGGCAGCGACGCGCUGGAGUGAUGUUCCGACGGC [#2 Exclusion - Theophylline A Attempt #7 (HarryS)] is greater than or equal to 100 nM
Marked response: 1

Exam item: # check: apparent KD of K4 kissing-loop reporter of CUAGGUAACACAGGAUAUGUCCGAGUGAUGUUCGAGCCUUUCCAUUGACGAAAUUAAUGGUGGGUGACAGAAGGGUGAGUACUGA [Uses] is greater than or equal to 100 nM
Marked response: 1

----------
System: K4 kissing-loop RNA reporter;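 note: bound reporter read as fluorescence of individual clusters on recovered sequencing chips by microscopy, with normalized cluster intensities fitted with a binding model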
procedure_details: apparent KD of K4 kissing-loop reporter; higher = weaker reporter binding
condition_details: Eterna round: R107; input ligand: theophylline 20 uM
Documented apparent KD of K4 kissing-loop reporter across a set of sequences
Answer with the value and then the unit.

Examples with their reported apparent KD of K4 kissing-loop reporter follow.
AGACUACUGAUAGGAUAUAACAUACUACCUCGUAUACCAAAGGUAUACGAGGCCCUUCUAGUGAUGUUAGAAGGGUCGGUAGUCA [Omei KL FMN B Exc B v5]	81.2 nM
AGUGAUGUGGGAAGGAGCGGUAUAUGAGUUCAGUGAUGUUGAAGUGAUGCUGUAGUGUUGUGCCAGGUAGGUCGCCUAGAUGUUA [KL-XARG B25]	226 nM
UGCCGCAAGGCGAGCGCUCCCACUCCGGAAGGAGCGCCCGCAAGGGCAGGUAGGUCGCCGGAGUGAUGUUCCGGUGGAGGGCUCG [#2 Exclusion - Arginine A Attempt #25 (Inspired by Omei)]	164 nM
AAGCAGUCACUCGACGCCAUCGAAGAUGGGCGAGGACCGGUACGGCCGCCACUCGGAGUGAUGUUCUGAUGACUGCAAAAUAAAA [MatMod 8 - Jieux - Exclusion - Tryptophan A]	156 nM
GGUCGAGUGAUGUUCGAUGUUAUGCAUUCAGAGGAUAUAGGAUUAGCUAGAAGGCUGAAUCAAUCUUCGAGUGAUGUUCGAGGAU [Same State FMN A GF 9]	123 nM
AGGCACGAGCAAGGAUAUCGAGUAGAGUGAUGUUCUGCCUGGGUUGGCUCGCAAGGGCCUUCCCAGCGAGAAGGUGCUCGUGCCU [#2 Same State - FMN A Attempt #17 (HarryS)]	745 nM
GGAGGAGAAUAUGAUACCAGCAGAGAGAGAUACGAAGUAUAGUGAUGUUAUAUGAGAGAAUGCCCUUGGCAGCAUAAGACGCAGG [#08 K4 Theophylline B Same State]	95 nM
AAUAAGGUCGCCGAUACCAGCGCGGGCAGAGCAAAGCUCUGCCCGGUAGUGAUGUUACCGCGCCCUUGGCAGCGGUGGCACGACC [Omei KL Theo B SS C v6]	159 nM

What the record says about AAAUGACAAGUAAUAAAGAAAAGCGGCGAUACCAGUAAGAACGUAUACCCUUGGCAGCGCAUAUUAGAGUGAUGUUCUAAUCCGA [theeternabot_sameState_KL_Theo_A_25] : apparent KD of K4 kissing-loop reporter is 220 nM

What the record says about AAUCUCGUCCUGGAUACCAGUCGCACGGUUUGUCAUGUCAGCCAGUGAUGUUGCCUGCAUGACCCUUGGCAGCCAUUCUAUGAAU [theeternabot_exclusion_KL_Theo_B_45] : apparent KD of K4 kissing-loop reporter is 334 nM

What the record says about UUGGUCUUUUAAGGAUAUCAUACUCCACUGAGCGAGUGAUGUUCGCUCCUGUUACGCCUGGGACCGUGAGAAGGUAAAGUACCGU [theeternabot_sameState_KL_FMN_B_5] : apparent KD of K4 kissing-loop reporter is 147 nM

What the record says about UCCGAGCUUAUUGAUACCAGUUCGGCGAGCUACUAGAGUGAUGUUCUUGUAAGCGUACACAACCCUUGGCAGCAAUAGAGGAGGU [theeternabot_sameState_KL_Theo_B_37] : apparent KD of K4 kissing-loop reporter is 130 nM

What the record says about AGAACUGUCUGGGAUACCAGCCGAGGAGUGAUGUUCCGGCUCGACGAAACGUCGAGCUACGGCCCUUGGCAGCUCAGACAGUUCA [#22 K4 Theophylline B Same State] : apparent KD of K4 kissing-loop reporter is 735 nM

What the record says about AGCUGCCGAAUAGAUACCAGUGUCUUUAGUGAUGUUUCAGAGCUGGCACGAUCAGAAGGUCACCCUUGGCAGCUAGUGCCAGCGU [theeternabot_exclusion_KL_Theo_B_39] : apparent KD of K4 kissing-loop reporter is 344 nM

What the record says about AAGUGUGUGGCGGCCGCCACUAGAAUCCAGUGAUGUUGGAGAUAUCUCGUAAGAGAUAUCCGCCAUAGGACCGGGCCAUAUAGAA [Same State - Tryptophan B (Freestyle 15)] : apparent KD of K4 kissing-loop reporter is 413 nM

Source of measurements: the supplement of paper PMC9170038
